Answer each item with its documented Tmax.
assay: Pharmacokinetics in rats after oral administration of F18; type: in vivo, Sprague-Dawley rats; conditions: Sprague-Dawley; rat blood, oral F18 50 mg/kg, mean ± SD, n = 5
Please reply with the bare figure in h and do not write the unit itself.

CCCc1cc(=O)oc2c3c(c4c(c12)OC(C)(C)C=C4)OC(CCl)CC3=O (stereo not shown) [Metabolite F18] yielded Tmax of 3.3

CCCc1cc(=O)oc2c3c(c4c(c12)OC(C)(C)C=C4)O[C@H](CCl)C[C@H]3O (relative stereo) [Metabolite M3-1, trans-12-hydroxy F18] yielded Tmax of 4

CCCc1cc(=O)oc2c3c(c4c(c12)OC(C)(C)C=C4)O[C@H](CCl)C[C@@H]3O (relative stereo) [Metabolite M3-2, cis-12-hydroxy F18] yielded Tmax of 4

CCCc1cc(=O)oc2c3c(c4c(c12)OC(C)(C)C=C4)OC(CO)CC3=O (stereo not shown) [Metabolite M1] yielded Tmax of 4
